tested on: BT-549 breast; test: NCI tumour cell line growth inhibition, 48 h
Listing: TGI of selected molecules

Worked cases, TGI given:
| MOLECULE | MEASURED_VALUE |
| --- | --- |
| COC(=O)C(Cc1c[nH]c2ccccc12)NP(=O)(O)OCC1OC(n2cc(Br)c(=O)[nH]c2=O)CC1O (centres undefined) | > 100 µM |
| Nc1ccc(COC(O)CN2CCCCC2)cc1[N+](=O)[O-] (centres undefined) | > 100 µM |
| CC(=O)O[C@H]1C[C@@H](OC(C)=O)[C@@](C)(O)[C@@H]2[C@@H](OC(C)=O)[C@@]3(O)[C@H](/C=C(/CO)[C@H]4O[C@H]4[C@@H](OC(C)=O)[C@@]12C)OC(=O)[C@@H]3C | > 25 µM |

Next up:
Form: molecule = CC(C(=O)c1ccncc1)c1ccccn1 (centres undefined) ; TGI = > 100 µM

----------
tested on: EKVX NSCLC; test: NCI tumour cell line growth inhibition, 48 h
# TGI per record follows

The examples below pair each entry with its known result.
| COMPOUND | MEASURED_VALUE |
| --- | --- |
| CCCCCCCC/C=C1\CCC(CN2CCOCC2)C1=O (centres undefined) | 32.9 µM |
| CC(C(=O)c1ccccc1)C1(O)C(=O)Nc2ccc(Cl)cc21 (centres undefined) | > 100 µM |
| CC(=O)NNc1nc(C)c(C(=O)/C=C/c2ccc(Cl)cc2)s1 | > 100 µM |
| CCCN(CCC)C(=O)c1nc(N)nc(-c2ccc(OC)cc2)c1-c1ccc(OC)cc1 | > 100 µM |
| CO/N=C(\C([O-])=N\[n+]1cnn(CC(=O)OC(C)(C)C)c1)c1csc(NC(c2ccccc2)(c2ccccc2)c2ccccc2)n1 | > 10 µM |
| CCN(CC)CCn1c(=O)c2c(C)c3oc4ccccc4oc3c(C)c2c1=O | > 100 µM |
| COc1cc2c(cc1Oc1c(Oc3c(O)c(OC)cc4c3C(CC(C)C)N(C)CC4)c(OC)cc3c1C(CC(C)C)N(C)CC3)C(CC(C)C)N(C)CC2 (centres undefined) | 2.18 µM |
| CCOC(=O)C1=C(C)N(NC(N)=O)C2(N)N(NC(N)=O)C(C)=C(C(=O)OCC)C12C(=O)OCC (centres undefined) | > 100 µM |
| Cc1ccc(S(=O)(=O)N/N=C2\CC3CC4CCC2C4C3)cc1 (centres undefined) | > 100 µM |
| CCCCCCCC(=O)SCC/C=C/[C@@H]1CC(=O)NCc2nc(cs2)C2=N[C@@](C)(CS2)C(=O)N[C@@H](C(C)C)C(=O)N1 | > 100 µM |

Field TGI (entry "CC(=O)O[C@H]1C(=O)[C@@]2(C)[C@H]([C@H](OC(=O)c3ccccc3)[C@]3(O)C[C@H](OC(=O)[C@H](O)[C@@H](NC(=O)c4ccccc4)c4cccc(N(C)C)c4)C(C)=C1C3(C)C)[C@]1(OC(C)=O)CO[C@@H]1C[C@@H]2O" ) reads > 75 µM

# compound "COc1cc(C2C3=C(CCCC3=O)N(c3ccc(C)cc3)C3=C2C(=O)CCC3)c([N+](=O)[O-])cc1OC" ; its TGI = > 100 µM

TGI reading for "Nn1c(=O)[nH]c2ncn(Cc3ccccc3)c2c1=O" : > 100 µM

Kindly note the recorded TGI for "O=c1[nH]nc(Cc2ccccc2)n1/N=C/c1cccnc1" , which is > 100 µM

The measured TGI associated with "CC(C)C(=O)/C=C/S/C=C/C(=O)C(C)C" reads 90.9 µM

Record "Cc1ccc2c(c1)C(=O)c1c-2c(OCCCN(C)C)nc2ccccc12" . Reported TGI: 13.5 µM

In plain terms, "COc1ccc(C(=O)CC2=Nc3nnc(CCCCCCCc4nnc5n4C(=O)C(CC(=O)c4ccc(OC)cc4)=N5)n3C2=O)cc1" has a documented TGI of > 100 µM

# credit: PubChem BioAssay (NCI)
